# Tested on: grass pollen allergic donor derived TCL-03 lines
# Assay Text: Extended cross-reactivity study, proliferation on TCL03 DK1+DK2 (Study XR2), scoring
# Type: cell-based, human
# Setup Conditions: study XR2; homologue from Dac g; score 0 to 7
Where no end group is shown, it is not given here.
Assay Readout: Cross-reactivity score, Dac g

Substance | Readout Value
GSDPKKLVLNIKYTRPGDSL-OH [peptide 217] | 1
WGAIWRIDTPDKLTGPFTVR-OH [peptide 211] | 5
GDEQKLRSAGELELQFRRVK-OH [compound 206] | 2
STGGAYESYKFIPALEAAVK-OH [compound 71] | 5
AYESYKFIPALEAAVKQAYA-OH [peptide 285] | 6
TDDNEEPIAPYHFDLSGHAF-OH [peptide 204] | 7
AGELELQFRRVKSKYPEGTK-OH [peptide 207] | 3
YHFDLSGHAFGAMAKKGDEQ-OH [peptide 205] | 7

====

# Assay Text: Peptide solubility by visual inspection; further: key: ok: clear solution; +: very small precipitation only visible with a magnifier; ++: precipitation/turbid solution; +++: more precipitation/turbid solution
# Type: physicochemical
# Setup Conditions: 3 mg/mL, acetate salt, non-filtered; 250 mM D-Mannitol and 25 mM sodium phosphate, pH 7.0; after centrifugation
Where no end group is shown, it is not given here.
Assay Readout: Visual inspection after centrifugation pH 7

Substance | Readout Value
WGAIWRIDTPDKLTGPFTVR-OH [peptide 211] | +++
GSDPKKLVLNIKYTRPGDSL-OH [peptide 217] | ++
KEDFLGSLVKEIPPRLLYAK-OH [peptide 222] | ++
AGELELQFRRVKSKYPEGTK-OH [peptide 207] | +
